Data provenance: patent US20120277209A1

# reported pIC50; entries follow
TARGET OR SYSTEM: PDE10 (UniProt Q9Y233)
MEASUREMENT PROTOCOL: PDE10 enzyme inhibition, IMAP TR-FRET assay (MPDE10A7 Enzyme Activity and Inhibition)
Assay type: biochemical
SETTINGS: PDE10 enzyme inhibition; average IC50 data for each compound; read-out: Average IC50
Lab note: report pIC50 as minus log10 of the concentration in molar units, number only.

These solved cases illustrate the format of a correct answer.
- Fc1cc(Oc2cnccn2)ccc1Nc1nc2ccccc2s1 [drawing 878]: 6.11
- O=C(c1ccc(Oc2nccnc2C(=O)NCCc2ccc(C(F)(F)F)cc2)cc1)c1nc2ccccc2[nH]1 [drawing 807]: 7.61
- COc1ccncc1-c1nccnc1Oc1ccc(C(=O)c2nc3ccccc3[nH]2)cc1 [drawing 990]: 9.27

Could you now consider this next compound?
[ask] For the compound O=C1CCC(c2nccnc2Oc2ccc(C(=O)c3nc4ccccc4[nH]3)cc2)CC1 [drawing 911] , report pIC50.
[reply] 9.70
